Test: Cytotoxicity assay (MTT)
Assay type: cell-based
Details: MCF-7 human breast AC, 5 days
Protocol: Compounds 1−5 were dissolved as described in the previous section. […] After incubating the cell lines with a serial dilution of the test compounds (final range: 37 to 0.6 × 10^−3 µg/mL) for five days, the cells were dyed using 3-(4,5-dimethyl-2-thiazolyl)-2,5-diphenyl-2H-tetrazolium bromide (MTT), which is only converted to its purple formazan derivative by living cells. […] For this, the absorption at 595 nm was measured using a microplate reader to calculate the percentage of cell viability. […]
pIC50: −log10 of the molar value.

molecule | pIC50
O=C1C[C@H]2C(=C3CCC(=O)c4c(O)ccc2c43)c2cccc(O)c21 [Compound 4, truncatone A] | 5.06
